# TARGET_UNDER_TEST: CXCR4-CXCL12 binding (Homo sapiens, UniProt P48061)
# Construct: expressed in transfected cells
# Sequence (P48061 22-89 limits assumed): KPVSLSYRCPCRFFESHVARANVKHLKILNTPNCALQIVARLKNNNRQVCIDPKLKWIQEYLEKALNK
# ASSAY_SUMMARY: Inhibition of CXCL12-TR binding to CXCR4-GFP (FRET)
# EXPERIMENTAL_PARAMETERS: 10 μM; Table 2
Tick Fulfilled if inhibition at 10 µM is 50% or greater. Tick Not fulfilled if inhibition at 10 µM is less than 50%.

{"columns": ["COMPOUND", "TARGET_UNDER_TEST", "ASSIGNED_CLASS"],
 "data": [
  ["COc1ccc(-c2cc(-c3ccc(Cl)cc3)nc(=O)[nH]2)cc1O", "CXCR4-CXCL12 binding (Homo sapiens, UniProt P48061)", "Not fulfilled"],
  ["O=c1nc(-c2ccc(Cl)cc2)cc(-c2ccccc2)[nH]1 [compound (B), reference compound]", "CXCR4-CXCL12 binding (Homo sapiens, UniProt P48061)", "Not fulfilled"],
  ["COc1cc(-c2cc(-c3ccc(C(C)C)cc3)nc(=O)[nH]2)ccc1O", "CXCR4-CXCL12 binding (Homo sapiens, UniProt P48061)", "Not fulfilled"],
  ["O=c1nc(-c2ccc(Cl)cc2)cc(-c2ccc(O)c(OC(F)(F)F)c2)[nH]1", "CXCR4-CXCL12 binding (Homo sapiens, UniProt P48061)", "Fulfilled"],
  ["COc1cccc(-c2cc(-c3ccc(Cl)cc3)nc(=O)[nH]2)c1 [compound (C), reference compound]", "CXCR4-CXCL12 binding (Homo sapiens, UniProt P48061)", "Not fulfilled"]
]}

Data request: Say whether "COc1cc(-c2cc(-c3ccc(O)cc3)nc(=O)[nH]2)ccc1O" shows inhibition at 10 µM of 50% or more.
Data returned: Fulfilled

Data request: Textbook exercise: given the entry "COc1ccc(-c2cc(-c3ccc(O)c(OC)c3)[nH]c(=O)n2)cc1" , state whether its inhibition at 10 µM is greater than or equal to 50%.
Data returned: Fulfilled

Data request: Check the entry "COc1cc(-c2cc(-c3ccccc3Cl)nc(=O)[nH]2)ccc1O" : does inhibition at 10 µM equal or exceed 50%?
Data returned: Fulfilled

Data request: Could you verify whether the entry "COc1cc(-c2cc(-c3ccc(Cl)cc3)nc(=O)[nH]2)ccc1O" shows inhibition at 10 µM of no less than 50%?
Data returned: Fulfilled

Data request: Is it the case that "COc1cc(-c2cc(-c3ccc(F)cc3)nc(=O)[nH]2)ccc1O" has inhibition at 10 µM reaching or exceeding 50%?
Data returned: Not fulfilled

Data request: Threshold query (inhibition at 10 µM >= 50%) on O=c1nc(-c2ccc(Cl)cc2)cc(-c2ccc(O)cc2)[nH]1 [compound (A), reference compound]
Data returned: Not fulfilled

Data request: Say whether "COc1cc(-c2cc(-c3ccccc3)nc(=O)[nH]2)ccc1O" shows inhibition at 10 µM of 50% or more.
Data returned: Not fulfilled

----------
Below is a list of entries, each paired with its recorded melting point value.
Where a name gives a salt, the structure may show the parent alone.

{"columns": ["COMPOUND", "RESULT"],
 "data": [
  ["COc1cc(-c2cc(-c3ccc(N(C)C)nc3)nc(=O)[nH]2)ccc1O.Cl", "257 to 260 °C"],
  ["COc1cc(-c2cc(-c3ccc(Cl)cc3)nc(=O)[nH]2)ccc1C(=O)O [(27)]", "257 to 261 °C"],
  ["COc1cc(-c2cc(-c3ccc(N4CCN(C)CC4)cc3)nc(=O)[nH]2)ccc1O (as salt: hydrochloride)", "300 to 303 °C"],
  ["COc1cc(-c2cc(-c3ccc(N4CCNCC4)cc3)nc(=O)[nH]2)ccc1O.Cl", "117 to 124 °C"]
]}

Data request: Indicate its recorded melting point; the compound in question is "Cl.NCCOc1cc(-c2cc(-c3ccc(Cl)cc3)nc(=O)[nH]2)ccc1O"
Data returned: 272 to 276 °C
